ASSAYED_TARGET: GABAA receptor α1β1 (β1 subunit) (Rattus norvegicus, UniProt P15431+P62813)
Construct: rat α1β1 expressed in Xenopus laevis oocytes; with GABAA receptor α1 subunit
Sequence (P15431 26-474): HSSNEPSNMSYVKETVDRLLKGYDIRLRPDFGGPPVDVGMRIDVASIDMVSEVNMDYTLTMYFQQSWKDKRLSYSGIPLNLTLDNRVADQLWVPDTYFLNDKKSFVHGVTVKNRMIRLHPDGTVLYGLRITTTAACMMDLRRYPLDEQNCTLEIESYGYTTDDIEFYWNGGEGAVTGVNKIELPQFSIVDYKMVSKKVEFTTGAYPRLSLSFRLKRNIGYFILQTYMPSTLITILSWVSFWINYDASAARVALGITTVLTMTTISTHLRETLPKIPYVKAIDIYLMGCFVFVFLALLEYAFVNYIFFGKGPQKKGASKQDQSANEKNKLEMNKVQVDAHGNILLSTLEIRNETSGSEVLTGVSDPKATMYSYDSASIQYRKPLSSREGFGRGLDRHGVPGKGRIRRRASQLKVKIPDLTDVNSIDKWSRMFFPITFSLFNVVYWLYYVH
Sequence (P62813 28-455): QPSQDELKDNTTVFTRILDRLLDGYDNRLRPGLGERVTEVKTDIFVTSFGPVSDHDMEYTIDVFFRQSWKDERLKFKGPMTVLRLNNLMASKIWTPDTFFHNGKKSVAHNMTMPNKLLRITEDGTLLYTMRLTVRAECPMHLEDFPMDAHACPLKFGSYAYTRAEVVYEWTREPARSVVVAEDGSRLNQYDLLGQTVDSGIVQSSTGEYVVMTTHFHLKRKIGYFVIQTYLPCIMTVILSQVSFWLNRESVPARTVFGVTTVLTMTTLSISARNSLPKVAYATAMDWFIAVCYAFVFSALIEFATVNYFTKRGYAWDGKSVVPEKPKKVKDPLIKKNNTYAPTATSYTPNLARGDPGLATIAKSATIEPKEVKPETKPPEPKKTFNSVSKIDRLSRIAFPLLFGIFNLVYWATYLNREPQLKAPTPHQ
EXPERIMENT_SUMMARY: two-electrode voltage clamp, modulation of GABA EC3-5 current (low efficacy)
pEC50: −log10 of the molar value.
OBSERVATION_TYPE: pEC50

[[record]]
molecule = "O=C(O)c1[nH]c2ccc(Cl)cc2c1/N=N/c1ccc(Br)cc1 [MTI163]"
observation_type = "pEC50"
measurement = 5.12

